Ref: patent US11566017B2

Listed here are compounds together with their documented pIC50.
Target: tankyrase 2 (TNKS2) (Homo sapiens)
pIC50: −log10 of the molar value.
Measure: pIC50

> print(dat)
                                   compound  measure        result
1  CCc1cccc2c1NC(c1c[nH]nc1-c1ccc(OC)cc1)NC2=O (centres unmarked)    pIC50        > 8.30
2  CN1CCN(Cc2cccc(-c3cccc(-c4n[nH]cc4C4NC(=O)c5ccccc5N4C)c3)c2)CC1 (centres unmarked)    pIC50  7.30 to 7.70
3  COc1ccc(-c2n[nH]nc2C2NC(=O)c3cccc4c3N2CCO4)cc1 (centres unmarked)    pIC50  7.70 to 8.30
4  CN1c2ccccc2C(=O)NC1c1c[nH]nc1-c1cccc(NC(=O)Nc2ccccc2)c1 (centres unmarked)    pIC50  7.70 to 8.30
5  CN1c2ccccc2C(=O)NC1c1c[nH]nc1-c1ccc([N+](=O)[O-])cc1 (centres unmarked)    pIC50  7.30 to 7.70
